Assay: chemical genetic growth profiling, strain panel (AID 1159580);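 also: tested at 20 µM; growth read once vehicle control cultures reached saturation at 30 °C; 1 = growth at the plate median or of vehicle wells; lower values mean less growth of the strain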
Conditions: S. cerevisiae deletion strains, growth OD, locus YBR229C, strain ROT2, stronger effect = lower value
About 2,000 (36%) of roughly 5,500 compounds were called active. About 18% were inconclusive and are not listed. This is one part of the list.
For each of the compounds below, state its normalized growth.

Task: For the compound shown here, CSCCC(NC=O)C(=O)NC(C)C(=O)O (configuration not stated) , give the reported normalized growth.
Result: 0.989 (inactive)

Task: Fill in the blank: the reported normalized growth of CC(C)NCC(O)c1ccc(O)c(O)c1 (configuration not stated) is ____.
Result: 1.02 (inactive)

Task: Fill in the blank: the reported normalized growth of CNc1ccccc1C(=O)O is ____.
Result: 1 (inactive)

Task: Item CCCCC1(COC(=O)CCC(=O)O)C(=O)N(c2ccccc2)N(c2ccccc2)C1=O has what recorded normalized growth?
Result: 1 (inactive)

Task: Which normalized growth is reported for this compound? CNC[C@@H](O)c1ccc(O)c(O)c1
Result: 0.96 (inactive)

Task: Query: normalized growth; subject: NC[C@H](O)c1ccc(O)c(O)c1
Result: 1.01 (inactive)

Task: Could you tell me which normalized growth is on file for NCC(O)c1ccc(O)cc1 (configuration not stated) ?
Result: 0.977 (inactive)
